System: S. faec.
TEST_PROTOCOL: Competitive inhibition of ALP binding to bacteria by added protein (Example 3, Table 2)
MEASUREMENT_CONDITIONS: protein 2-40 μg added with ALP 2 μg
Procedure: Less than 20% was no inhibition (NI) and greater than 90% was complete inhibition (CI) with a binding constant great than ALP. Bacterial cells (1 to 4.5×10^7 cells/mL) were washed twice with water after centrifugation to separate cells into a packed pellet from the supernatant liquid. […] In some cases a glycated protein (2-40 μg) and bovine intestinal alkaline phosphatase (ALP) (2 μg or […]) were added and the binding of the glycated protein measured by the reduction of binding of ALP. […]
Attribute: inhibition of the binding of ALP by bacteria
MEASURED_PROPERTY: inhibition of the binding of ALP by bacteria (%)

- MOLECULE: "beta-2-Glycoprotein: glycoprotein with one N-link complex type chain (protein, UniProt P02749 20-345, looked up) Beta-2-glycoprotein 1: GRTCPKPDDLPFSTVVPLKTFYEPGEEITYSCKPGYVSRGGMRKFICPLTGLWPINTLKCTPRVCPFAGILENGAVRYTTFEYPNTISFSCNTGFYLNGADSAKCTEEGKWSPELPVCAPIICPPPSIPTFATLRVYKPSAGNNSLYRDTAVFECLPQHAMFGNDTITCTTHGNWTKLPECREVKCPFPSRPDNGFVNYPAKPTLYYKDKATFGCHDGYSLDGPEEIECTKLGNWSAMPSCKASCKVPVKKATVVYQGERVKIQEKFKNGMLHGDKVSFFCKNKEKKCSYTEDAQCIDGTIEVPKCFKEHSSLAFWKTDASDVKPC"
  RELATION_QUALIFIER: "="
  NUMERIC_RESULT: 61
- MOLECULE: "Myoglobin: non-glycated protein as received from suppliers (protein, UniProt P02144 2-154, looked up) Myoglobin: GLSDGEWQLVLNVWGKVEADIPGHGQEVLIRLFKGHPETLEKFDKFKHLKSEDEMKASEDLKKHGATVLTALGGILKKKGHHEAEIKPLAQSHATKHKIPVKYLEFISECIIQVLQSKHPGDFGADAQGAMNKALELFRKDMASNYKELGFQG"
  RELATION_QUALIFIER: "<"
  NUMERIC_RESULT: 20

Cited source: patent US20060141546A1
